Please respond with reported viscosity for every item in the list.
# Condition summary: 293.15 K; 92.3 kPa; Liquid; Concentric cylinders viscometry
The answer is to be given in mPa·s; state only the numeric part.

Quick note, viscosity for O [water] landed at 1.067

Quick note, viscosity for OCCO [1,2-ethanediol] landed at 20.61

Quick note, viscosity for OCC(O)CO [glycerol] landed at 1408.4

Quick note, viscosity for OCCOCCO [diethylene glycol] landed at 35.89

Quick note, viscosity for OCCOCCOCCO [triethylene glycol] landed at 48.06

Quick note, viscosity for CCO [ethanol] landed at 1.202

* * *

# Condition summary: 303.15 K; 92.3 kPa; Liquid; Concentric cylinders viscometry
Assay readout: log10 of viscosity (log10 of the value in mPa·s)
Hello, just confirming the data are log10 of viscosity with units of mPa·s.

Quick note, log10 of viscosity for OCCOCCO [diethylene glycol] landed at 1.35

Quick note, log10 of viscosity for CCO [ethanol] landed at 0.00

Quick note, log10 of viscosity for OCCOCCOCCO [triethylene glycol] landed at 1.47

Quick note, log10 of viscosity for O [water] landed at -0.08

Quick note, log10 of viscosity for OCCO [1,2-ethanediol] landed at 1.14

Quick note, log10 of viscosity for OCC(O)CO [glycerol] landed at 2.77

* * *

Please respond with reported speed of sound for every item in the list.
# Condition summary: 298.15 K; 92.3 kPa; Liquid; Frequency=3 MHz; Single path-length method
The answer is to be given in m/s; state only the numeric part.

Quick note, speed of sound for OCCOCCO landed at 1579.1

Quick note, speed of sound for CCO landed at 1143.5

Quick note, speed of sound for OCCO landed at 1654.7

Quick note, speed of sound for OCCOCCOCCO landed at 1611.6

Quick note, speed of sound for OCC(O)CO landed at 1911.9
